- PROTOCOL NOTES: in vitro
- COND: dog
We begin with a simple list: items and their reported CC50.
EXPERIMENTAL READOUT: CC50

* O=c1ccn(Cc2cn([C@@H]3O[C@H](COP(=O)(Oc4ccccc4)Oc4ccccc4)[C@@H](O)[C@H]3O)nn2)c(=O)[nH]1 [Compound 13a] | > 538 µM
* O=c1ccn(CCCCc2cn([C@@H]3O[C@H](COP(=O)(O)O)[C@@H](O)[C@H]3O)nn2)c(=O)[nH]1 [Compound 26a] | > 463 µM
* O=c1ccn(CCCCc2cn([C@@H]3O[C@H](COP(=O)(Oc4ccccc4)Oc4ccccc4)[C@@H](O)[C@H]3O)nn2)c(=O)[nH]1 [Compound 14a] | > 500 µM
* COC(=O)[C@H](C)NP(=O)(OC[C@H]1O[C@@H](n2cc(CCCCn3ccc(=O)[nH]c3=O)nn2)[C@H](O)[C@@H]1O)Oc1ccccc1 (stereo partly drawn) [Compound 18a] | > 463 µM
* O=c1[nH]c(=O)n(Cc2cn([C@@H]3O[C@H](COP(=O)(Oc4ccccc4)Oc4ccccc4)[C@@H](O)[C@H]3O)nn2)c2ccccc12 [Compound 13b] | > 494 µM
* CCOP(=O)(OCC)OC[C@H]1O[C@@H](n2cc(CCCCn3ccc(=O)[nH]c3=O)nn2)[C@H](O)[C@@H]1O [Compound 12a] | > 596 µM
